Cited source for all entries: patent US20120190659A1

system: human umbilical vascular endothelial (HUVE) cells; experiment: HUVE cell growth (BrdU incorporation); assay type: cell-based; conditions: Homo sapiens, in the presence of bFGF; read-out: IC50, cell growth induced by bFGF
MEASURE_NAME: IC50 (nM)
Number only, in nM; omit the unit.

Please indicate IC50 recorded for CN(C)[C@H]1CC[C@H]2[C@@H](CC[C@@H]3[C@@H]2CC[C@]2(C)C(c4ccc5cnccc5c4)=CC[C@@H]32)C1 [EJC-10]
64.1

----------
test system: human umbilical vascular endothelial (HUVE) cells; assay: HUVE cell growth (BrdU incorporation); format: cell-based; conditions: Homo sapiens, media absent an exogenous growth factor; read-out: IC50, growth of HUVE cells
MEASURE_NAME: IC50 (nM)
Number only, in nM; omit the unit.

Please indicate IC50 recorded for CN(C)[C@H]1CC[C@H]2[C@@H](CC[C@@H]3[C@@H]2CC[C@]2(C)C(c4ccc5cnccc5c4)=CC[C@@H]32)C1 [EJC-10]
57.6
